TEST DETAILS: Inhibition of DNAJB1-PKAcalpha (unknown origin) using biotinylated-peptide substrate CREB incubated for 45 mins in presence of ATP and cAMP by ELISA
Parameters: species or system Homo sapiens
PARAMETER MEASURED: IC50 (µM)

1. O=C(NC[C@H]1CCCN1)C1=CN(c2ncnc3[nH]ccc23)CCS1    0.38
2. NC1(CNC(=O)C2=CN(c3ncnc4[nH]ccc34)CCS2)CCC1    0.18
3. N[C@H]1CCCN(C(=O)C2=CN(c3ncnc4[nH]ccc34)CCS2)C1    0.081
4. Cc1c[nH]c2nccc(N3C=C(C(=O)N4CCC[C@H](N)C4)SCC3)c12    0.28
5. NCC1(NC(=O)C2=CN(c3ncnc4[nH]ccc34)CCS2)CCC1    0.17
6. C[C@@H](CN)NC(=O)C1=CN(c2ncnc3[nH]ccc23)CCS1    0.11
7. C[C@H]1CCN(C(=O)C2=CN(c3ncnc4[nH]ccc34)CCS2)C[C@@H]1N    0.007
8. C[C@@]1(N)CCCN(C(=O)C2=CN(c3ncnc4[nH]cnc34)CCS2)C1    0.062
9. O=C(N[C@@H]1CCCNC1)C1=CN(c2ncnc3[nH]ccc23)CCS1    0.69
10. N[C@H]1CCN(C(=O)C2=CN(c3ncnc4[nH]ccc34)CCS2)C1    0.5
11. C[C@]1(N)CCCN(C(=O)C2=CN(c3ccnc4[nH]ccc34)CCS2)C1    0.42
12. Cn1cncc1C1=CN(c2ncnc3[nH]ccc23)CCS1    0.15
13. O=C(NC[C@@H]1CCCN1)C1=CN(c2ncnc3[nH]ccc23)CCS1    0.35
14. Cc1ncoc1C1=CN(c2ncnc3[nH]ccc23)CCS1    4.5
15. NCCNC(=O)C1=CN(c2ncnc3[nH]cnc23)CCS1    1.3
16. Cc1c[nH]c2nccc(N3C=C(C(=O)N4CCC[C@](C)(N)C4)SCC3)c12    0.5
17. O=C(N[C@H]1CCCNC1)C1=CN(c2ncnc3[nH]ccc23)CCS1    0.066
18. CC(C)(C)c1cc(N2C=C(c3ccnc4[nH]ccc34)SCC2)ncn1    7.9

---

TEST SYSTEM: Dual specificity protein kinase CLK2 (Homo sapiens)
TEST DETAILS: Inhibition of human CLK2 at 50 nM in presence of ATP by radiometric Hotspot kinase assay relative to control
Active and inactive are the calls of the source. The calls are words filed in the database; no cut-off is given here.
PARAMETER MEASURED: inhibition

1) Cc1c[nH]c2ncnc(N3C=C(C(=O)N4CCC[C@@H](N)C4)SCC3)c12    Active
2) Cn1cncc1C1=CN(c2ncnc3[nH]cnc23)CCS1    Active
3) Cn1cncc1N1C=C(c2ccnc3[nH]ccc23)SCC1    < 50%
4) C1=C(c2ccnc3[nH]ccc23)SCCN1c1ncnc2[nH]ccc12    < 50%

---

TEST DETAILS: Inhibition of DNAJB1-PKAcalpha (unknown origin) using biotinylated-peptide substrate CREB incubated for 45 mins in presence of ATP and cAMP by ELISA
Design: species or system Homo sapiens
IC50 under 300 nM gets class 1, anything at or over 300 nM gets class 0.

1. NCCNC(=O)C1=CN(c2ccnc3[nH]ccc23)CCS1    class 1
2. Cc1cc(N2C=C(c3ccnc4[nH]ccc34)SCC2)ncn1    class 1
3. O=C(N[C@H]1CCNC1)C1=CN(c2ncnc3[nH]ccc23)CCS1    class 1
4. Cc1c[nH]c2ncnc(N3C=C(c4ccnn4C)SCC3)c12    class 0
5. O=C(N[C@@H](c1ccccc1)[C@H]1CCCN1)C1=CN(c2ncnc3[nH]ccc23)CCS1    class 1
6. C1=C(c2ccnc3[nH]ccc23)SCCN1c1cc(OCc2ccccc2)ncn1    class 0
7. CN[C@H]1CCCN(C(=O)C2=CN(c3ccnc4[nH]ccc34)CCS2)C1    class 1
8. O=C(C1=CN(c2ncnc3[nH]ccc23)CCS1)N1CCn2ccnc2C1    class 1
9. N[C@@H]1CCCN(C(=O)C2=CN(c3ccnc4[nH]ccc34)CCS2)C1    class 1
10. N[C@@H]1c2ccccc2C[C@@H]1NC(=O)C1=CN(c2ncnc3[nH]ccc23)CCS1    class 0
11. Cc1noc(C)c1C1=CN(c2ncnc3[nH]cnc23)CCS1    class 0
12. C1=C(c2ccncn2)SCCN1c1ccnc2[nH]ccc12    class 0
13. C1=C(c2ccnc3[nH]ccc23)SCCN1c1ccnc2[nH]ccc12    class 0
14. CN[C@@H]1CCCN(C(=O)C2=CN(c3ccnc4[nH]cc(C)c34)CCS2)C1    class 0
15. C1=C(c2cc[nH]n2)SCCN1c1ncnc2[nH]cnc12    class 0

---

TEST DETAILS: Inhibition of DNAJB1-PKAcalpha (unknown origin) using biotinylated-peptide substrate CREB incubated for 45 mins in presence of ATP and cAMP by ELISA
Parameters: species or system Homo sapiens
pIC50: −log10 of the molar value.
Below, each entry is listed with its recorded pIC50.
PARAMETER MEASURED: pIC50

1) C1=C(c2cccnc2)SCCN1c1ncnc2[nH]ccc12    < 5.00
2) Cc1noc(C)c1C1=CN(c2ncnc3[nH]ccc23)CCS1    < 5.00
3) Cc1ncc(C2=CN(c3ncnc4[nH]cc(C)c34)CCS2)o1    < 5.00

---

TEST DETAILS: Inhibition of DNAJB1-PKAcalpha (unknown origin) using biotinylated-peptide substrate CREB incubated for 45 mins in presence of ATP and cAMP by ELISA
Set-up: species or system Homo sapiens
PARAMETER MEASURED: IC50 (nM)

1. CN[C@H]1CCCN(C(=O)C2=CN(c3ccnc4[nH]cc(C)c34)CCS2)C1    530
2. C1=C(c2ccnc3[nH]ccc23)SCCN1c1ncnc2sccc12    310
3. C[C@@H]1CCN(C(=O)C2=CN(c3ncnc4[nH]ccc34)CCS2)C[C@@H]1N    60
4. C[C@H](CN)NC(=O)C1=CN(c2ncnc3[nH]ccc23)CCS1    530
5. C1=C(c2ccnc3[nH]ccc23)SCCN1c1cc(-c2ccsc2)ncn1    2200
6. C1=C(c2cc[nH]n2)SCCN1c1ncnc2[nH]ccc12    2000
7. NCCCCCCNC(=O)C1=CN(c2ncnc3[nH]ccc23)CCS1    2900
8. N[C@@H]1CCN(C(=O)C2=CN(c3ncnc4[nH]ccc34)CCS2)C1    98
9. C1=C(c2cnco2)SCCN1c1ncnc2[nH]ccc12    2900
10. Cc1ncoc1C1=CN(c2ncnc3[nH]cnc23)CCS1    1400
11. Cc1c[nH]c2ncnc(N3C=C(c4cnn(C)c4)SCC3)c12    5500
12. O=C(C1=CN(c2ncnc3[nH]ccc23)CCS1)N1C[C@@H]2CCCN[C@@H]2C1    1100
13. Cn1cc(C2=CN(c3ncnc4[nH]cnc34)CCS2)cn1    2700
14. C[C@H]1[C@H](N)CCCN1C(=O)C1=CN(c2ncnc3[nH]ccc23)CCS1    2000
15. N[C@@H]1CCCN(C(=O)C2=CN(c3ncnc4[nH]ccc34)CCS2)C1    8
16. CN[C@@H]1CCCN(C(=O)C2=CN(c3ccnc4[nH]ccc34)CCS2)C1    570
17. C[C@@H]1[C@H](N)CCCN1C(=O)C1=CN(c2ncnc3[nH]ccc23)CCS1    200
18. O=C(N[C@@H](c1ccccc1)[C@@H]1CCCN1)C1=CN(c2ncnc3[nH]ccc23)CCS1    13
19. FC(F)(F)c1cc(N2C=C(c3ccnc4[nH]ccc34)SCC2)ncn1    2400
20. Cn1cncc1C1=CN(c2ccnc3[nH]ccc23)CCS1    860
21. O=C(C1=CN(c2ncnc3[nH]ccc23)CCS1)N1C[C@H]2CCCN[C@H]2C1    310
22. O=C(NC[C@@H]1CCCCN1)C1=CN(c2ncnc3[nH]ccc23)CCS1    660
23. NCCCCCNC(=O)C1=CN(c2ncnc3[nH]ccc23)CCS1    920
24. O=C(N[C@@H]1CCNC1)C1=CN(c2ncnc3[nH]ccc23)CCS1    380
25. Cc1c[nH]c2nccc(N3C=C(C(=O)N4CCC[C@@](C)(N)C4)SCC3)c12    43
26. CN[C@@H]1CCCN(C(=O)C2=CN(c3ncnc4[nH]cnc34)CCS2)C1    260
27. CN[C@@H]1CCCN(C(=O)C2=CN(c3ncnc4[nH]cc(C)c34)CCS2)C1    50
28. C[C@]1(N)CCCN(C(=O)C2=CN(c3ncnc4[nH]cnc34)CCS2)C1    2200
29. CN(C[C@@H]1CCCCN1)C(=O)C1=CN(c2ncnc3[nH]ccc23)CCS1    1200
30. NC[C@H](NC(=O)C1=CN(c2ncnc3[nH]ccc23)CCS1)c1ccccc1    110
31. Cc1c[nH]c2ncnc(N3C=C(c4cnco4)SCC3)c12    1800
32. Cn1cncc1N1C=C(c2ccnc3[nH]ccc23)SCC1    25
33. C[C@@H](N)CNC(=O)C1=CN(c2ncnc3[nH]ccc23)CCS1    180
